The reader will find reported Ratio IC50 values listed item by item below.
assay_target: Polyunsaturated fatty acid 5-lipoxygenase (Homo sapiens)
measurement_notes: Ratio of IC50 of caffeic acid to IC50 of compound for human 5LOX expressed in HEK293 cells
Type: cell-based
value_type: Ratio IC50

INSERT INTO assay_data (chem_smiles, value_measured) VALUES
  ('O=C(/C=C/c1ccc(O)c(O)c1)OCCn1cc(COC(=O)/C=C/c2ccc(O)c(O)c2)nn1', 16.8),
  ('O=C(/C=C/c1ccc(O)c(O)c1)OCCn1cc(COC(=O)/C=C/c2ccccc2)nn1', 36.7),
  ('O=C(/C=C/c1ccc(O)c(O)c1)OCc1cn(CC(CO)(Cn2cc(COC(=O)/C=C/c3ccc(O)c(O)c3)nn2)Cn2cc(COC(=O)/C=C/c3ccc(O)c(O)c3)nn2)nn1', 10.5),
  ('O=C(/C=C/c1ccc(O)c(O)c1)OCc1cn(CC(Cn2cc(COC(=O)/C=C/c3ccc(O)c(O)c3)nn2)(Cn2cc(COC(=O)/C=C/c3ccc(O)c(O)c3)nn2)Cn2cc(COC(=O)/C=C/c3ccc(O)c(O)c3)nn2)nn1', 10.1);

---

assay_target: Polyunsaturated fatty acid 5-lipoxygenase (Homo sapiens, UniProt P09917)
Sequence (P09917 whole entry): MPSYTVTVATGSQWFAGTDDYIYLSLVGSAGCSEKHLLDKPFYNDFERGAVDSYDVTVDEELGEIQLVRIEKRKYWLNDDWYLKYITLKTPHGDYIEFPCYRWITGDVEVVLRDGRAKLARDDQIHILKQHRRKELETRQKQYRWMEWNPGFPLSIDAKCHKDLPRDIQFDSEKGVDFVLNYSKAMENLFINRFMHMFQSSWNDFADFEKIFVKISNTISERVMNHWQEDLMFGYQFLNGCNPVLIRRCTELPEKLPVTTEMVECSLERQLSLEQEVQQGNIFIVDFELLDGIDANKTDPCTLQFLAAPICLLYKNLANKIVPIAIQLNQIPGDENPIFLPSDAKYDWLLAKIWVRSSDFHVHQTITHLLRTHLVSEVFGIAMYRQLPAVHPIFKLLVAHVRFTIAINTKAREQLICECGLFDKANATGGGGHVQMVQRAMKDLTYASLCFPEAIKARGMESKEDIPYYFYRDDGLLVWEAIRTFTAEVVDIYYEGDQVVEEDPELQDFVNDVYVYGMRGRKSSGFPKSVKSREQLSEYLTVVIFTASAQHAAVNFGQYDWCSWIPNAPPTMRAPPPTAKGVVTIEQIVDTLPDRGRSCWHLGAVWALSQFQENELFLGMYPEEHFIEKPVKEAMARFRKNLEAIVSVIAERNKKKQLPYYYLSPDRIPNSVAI
measurement_notes: Inhibition of human 5LOX expressed in HEK293 cells
Reported values of IC50 for individual entries
value_type: IC50 (nM)

INSERT INTO assay_data (chem_smiles, value_type, value_measured) VALUES
  ('O=C(/C=C/c1ccc(O)c(O)c1)OCc1cn(CC(CO)(Cn2cc(COC(=O)/C=C/c3ccc(O)c(O)c3)nn2)Cn2cc(COC(=O)/C=C/c3ccc(O)c(O)c3)nn2)nn1', 'IC50', 790),
  ('O=C(/C=C/c1ccc(O)c(O)c1)OCCn1cc(COC(=O)/C=C/c2ccccc2)nn1', 'IC50', 680),
  ('O=C(/C=C/c1ccc(O)c(O)c1)OCc1cn(CC(Cn2cc(COC(=O)/C=C/c3ccc(O)c(O)c3)nn2)(Cn2cc(COC(=O)/C=C/c3ccc(O)c(O)c3)nn2)Cn2cc(COC(=O)/C=C/c3ccc(O)c(O)c3)nn2)nn1', 'IC50', 660),
  ('O=C(/C=C/c1ccc(O)c(O)c1)OCCn1cc(COC(=O)/C=C/c2ccc(O)c(O)c2)nn1', 'IC50', 740);

---

assay_target: Polyunsaturated fatty acid 5-lipoxygenase (Homo sapiens) (UniProt P09917)
Sequence (P09917 whole entry): as above
measurement_notes: Inhibition of human 5LOX expressed in HEK293 cells at 1 uM
Type: cell-based
Calls of active or inactive are those of the source. No cut-off for these calls is given here.
value_type: Activity

INSERT INTO results (chem_smiles, value_type, value_measured) VALUES
  ('O=C(/C=C/c1ccccc1)OCCn1cc(COC(=O)/C=C/c2ccc(O)c(O)c2)nn1', 'Activity', 'Active'),
  ('O=C(/C=C/c1ccc(O)c(O)c1)OCCn1cc(COC(=O)/C=C/c2ccc(O)c(O)c2)nn1', 'Activity', 'Active'),
  ('O=C(/C=C/c1ccc(O)c(O)c1)OCCn1cc(COCC(COCc2cn(CCOC(=O)/C=C/c3ccc(O)c(O)c3)nn2)(COCc2cn(CCOC(=O)/C=C/c3ccc(O)c(O)c3)nn2)COCc2cn(CCOC(=O)/C=C/c3ccc(O)c(O)c3)nn2)nn1', 'Activity', 'Active'),
  ('O=C(/C=C/c1ccc(O)c(O)c1)OCc1cn(CC(COCC(Cn2cc(COC(=O)/C=C/c3ccc(O)c(O)c3)nn2)(Cn2cc(COC(=O)/C=C/c3ccc(O)c(O)c3)nn2)Cn2cc(COC(=O)/C=C/c3ccc(O)c(O)c3)nn2)(Cn2cc(COC(=O)/C=C/c3ccc(O)c(O)c3)nn2)Cn2cc(COC(=O)/C=C/c3ccc(O)c(O)c3)nn2)nn1', 'Activity', 'Active'),
  ('O=C(/C=C/c1ccc(O)c(O)c1)OCCn1cc(COC(=O)/C=C/c2ccccc2)nn1', 'Activity', 'Active');
